# measured-target: Gamma-secretase (Homo sapiens) (UniProt Q96BI3+Q9NZ42+Q8WW43+P49768+Q92542+P49810)
# test-description: Modulation of gamma-secretase expressed in HEK293 cells co-expressing APPsw-lon assessed as reduction of total amyloid beta/amyloid-beta-42 ratio by sandwich immunoassay
# Assay type: cell-based
parameter: Ratio

Some solved cases for reference:
molecule | measured-target | obs-value
COc1cc(/C=C2\CCCN3C2=NO[C@]3(CO)c2ccc(F)cc2)ccc1-n1cnc(C)c1 | Gamma-secretase (Homo sapiens) (UniProt Q96BI3+Q9NZ42+Q8WW43+P49768+Q92542+P49810) | 488
COc1cc(/C=C2\O[C@@H](C)CN3C2=NOC[C@@H]3c2cc(F)c(F)c(F)c2)ccc1-n1cnc(C)c1 | Gamma-secretase (Homo sapiens) (UniProt Q96BI3+Q9NZ42+Q8WW43+P49768+Q92542+P49810) | 320
COc1cc(/C=C2\CCCN3C2=NOC[C@@H]3C2CCOCC2)ccc1-n1cnc(C)c1 | Gamma-secretase (Homo sapiens) (UniProt Q96BI3+Q9NZ42+Q8WW43+P49768+Q92542+P49810) | 11

P. COc1cc(/C=C2\CCCN3C2=NOC[C@@H]3c2ccc(F)cc2)ccc1-n1cnc(C)c1
Q. COc1cc(/C=C2\CCCN3C2=NOCC3(CO)c2ccc(F)cc2)ccc1-n1cnc(C)c1 (racemic)
R. COc1cc(/C=C2\CCCN3C2=NOC[C@@H]3c2ccccc2)ccc1-n1cnc(C)c1
S. COc1cc(/C=C2\CCCN3CC(CO)ON=C23)ccc1-n1cnc(C)c1 (racemic)
T. COc1cc(/C=C2\CCCN3C2=NOC[C@@H]3C(C)C)ccc1-n1cnc(C)c1
-- ask Sort the molecules on Ratio; start with the lowest figure. Field: ranking. Enter the labels in the order requested.
-- reply Q, S, T, R, P
(Q: 2, S: 4, T: 34, R: 210, P: 385)
